tested on: IGROV1 ovarian; test: NCI tumour cell line growth inhibition, 48 h
Observation type: GI50

chemical_string=COc1ccc(S(=O)(=O)N2CCNCC2)cc1OC recorded_measurement="> 100 µM"

Annotate the compound "COCCOCCOCCOCCOC(=O)OC[n+]1ccc(NC(=NCCCCCCOc2ccc(Cl)cc2)NC#N)cc1" with its measured GI50.
0.465 µM

Consider the compound "Cn1c(C(=O)c2cccc3ccccc23)nc2ccccc21" . State its measured GI50.
> 100 µM

Indicate the recorded GI50 value for this compound: "O=S(=O)(O)c1ccc2cc3nn(-c4ccc(/C=C/c5ccc(-n6nc7cc8ccc(S(=O)(=O)O)cc8cc7n6)cc5S(=O)(=O)O)c(S(=O)(=O)O)c4)nc3cc2c1"
27 µM

Identify the reported GI50 for the following entry. "COc1ccc2c(c1)C(=O)c1c-2c(=O)n(CCCN(C)C)c2cc(OC)c(OC)cc12"
10.1 µM
